# System: fibrin- and LPS-induced microglia activation
# TEST_NAME: cells
# Assay type: cell-based, rat
# TEST_CONTEXT: quadrant by fibrin and LPS inhibition in HTS of 1907 compounds
MEASUREMENT_NAME: Quadrant (FIG. 5b)

Worked examples, 5 compounds total:
[
  {
    "COMPOUND": "CCOC(=O)[N-]c1cn(N2CCOCC2)n[o+]1 [Molsidomine, reference compound]",
    "TEST_SYSTEM": "fibrin- and LPS-induced microglia activation",
    "Quadrant (FIG. 5b)": "Q2"
  },
  {
    "COMPOUND": "CC(C)(C(=O)c1cccnc1)c1cccnc1",
    "TEST_SYSTEM": "fibrin- and LPS-induced microglia activation",
    "Quadrant (FIG. 5b)": "Q4"
  },
  {
    "COMPOUND": "C[C@@H]1C[C@H]2[C@@H]3CCC4=CC(=O)C=C[C@]4(C)[C@@]3(F)[C@@H](O)C[C@]2(C)[C@@]1(O)C(=O)COP(=O)(O)O [Dexamethasone Phosphate]",
    "TEST_SYSTEM": "fibrin- and LPS-induced microglia activation",
    "Quadrant (FIG. 5b)": "Q2"
  },
  {
    "COMPOUND": "CC(=O)O[C@H]1C[C@@H]2CC[C@@H]3[C@H](CC[C@@]4(C)[C@H]3C[C@H]([N+]3(C)CCCCC3)[C@@H]4OC(C)=O)[C@@]2(C)C[C@@H]1[N+]1(C)CCCCC1",
    "TEST_SYSTEM": "fibrin- and LPS-induced microglia activation",
    "Quadrant (FIG. 5b)": "Q4"
  },
  {
    "COMPOUND": "N[C@H]1CONC1=O",
    "TEST_SYSTEM": "fibrin- and LPS-induced microglia activation",
    "Quadrant (FIG. 5b)": "Q4"
  }
]

For every listed record, write down its Quadrant (FIG. 5b).
1. O[C@H]1[C@H](O)[C@@H](O)[C@H](O)[C@@H](O)[C@H]1O
2. CC(C)NCC(O)c1cc(O)cc(O)c1 (stereo not drawn)
3. COc1cc(NS(C)(=O)=O)ccc1Nc1c2ccccc2nc2ccccc12
4. CCn1cc(C(=O)O)c(=O)c2ccc(C)nc21
5. OC[C@@H](O)[C@@H](O[C@@H]1O[C@H](CO)[C@H](O)[C@H](O)[C@H]1O)[C@H](O)[C@@H](O)CO
6. CC(C)n1c(/C=C/C(O)CC(O)CC(=O)O)c(-c2ccc(F)cc2)c2ccccc21 (stereo not drawn)
7. O=C(CCNNC(=O)c1ccncc1)NCc1ccccc1 [Nialamide]

Result string:
["Q4", "Q4", "Q2", "Q4", "Q4", "Q2", "Q4"]

For every listed record, write down its Quadrant (FIG. 5b).
1. CCCCC(CC)COC(=O)c1ccccc1O (stereo not drawn) [Octisalate]
2. COCCc1ccc(OCC(O)CNC(C)C)cc1 (stereo not drawn)
3. COc1ccc(CCN2CCC(Nc3nc4ccccc4n3Cc3ccc(F)cc3)CC2)cc1
4. N[C@@H](CC(=O)O)C(=O)O
5. C[C@@H](O)[C@H]1C(=O)N2C(C(=O)O)=C(S[C@@H]3CN[C@H](C(=O)N(C)C)C3)[C@H](C)[C@H]12
6. CC(=O)OC(C)C[N+](C)(C)C (stereo not drawn)

Result string:
1. Q4
2. Q4
3. Q1
4. Q4
5. Q4
6. Q4
